Origin of values: patent US20040023887A1

Measured on: T1, soluble IGF-1R (recombinant human IGF-1R extracellular domain, R&D Systems Cat. # 391-GR/CF) (human, UniProt P08069 31-935)
T1 construct: extracellular domain; Bought protein; coated on plates (phage ELISA, TRF) or Eu-labelled (TR-FRET); also called sIGF-1R; rhIGF-1R
Assay details: phage ELISA
Property name: ratio over background (ratio)
Give your result in ratio as a bare value.

In the examples that follow, each entry is paired with its recorded ratio over background.
>>> df
                                     binder          property_name  unit_spec  result_number
0  RLFYCGIQALGANLGYSGCV (on phage) [R20α-4-20A12-IR]  ratio over background      ratio           39.9
1  RGAVAGFHDQFYDWFDRQVSRVHKFG (on phage) [H2CA-4-H9-IGFR]  ratio over background      ratio            5.6
2  SSIGGGFHENFYDWFSRQLSQSPPLK (on phage) [H2CA-4-F7-IGFR]  ratio over background      ratio            3.2
3  RCEEKQAEVGPSSDPFYHKMSELLGCR (on phage) [B6Ha-3-E9-IR]  ratio over background      ratio           24.2
4  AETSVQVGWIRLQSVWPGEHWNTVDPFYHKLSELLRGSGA (on phage) [B6L-4-D7-IR]  ratio over background      ratio            4.8

Now take the following binder into account.
Noted for GVRAMSFYDALVSVLGLGPSG (on phage) [20E2B-1-A6-IGFR] : its ratio over background reads 18.1
